In this section we review reported solubility at 24 h values for a set of compounds.
# Test Name: Measurement of the solubility
# Type: physicochemical
# Particulars: aqueous buffer, kinetic from dmso stock; PBS at pH 7.4, 24 h at RT, LC-MS, ratio of mass signals PBS/MeOH

Query Smiles	Unit String	solubility at 24 h
O=C(CCC(F)(F)F)N1CCC(c2ccc(F)cc2)CC1	µg/mL	51.9
O=C(CCCC(F)(F)F)N1CCC(c2ccccc2)CC1	µg/mL	42.9
O=C(CCC(F)(F)F)N1CCC(c2ccccc2)CC1	µg/mL	50.4
